Consider the following compounds and their measured A2 Receptor MPR Relative to MeAdo readings.
# SYSTEM NAME: Coronary A2-Adenosine Receptor (Canis lupus familiaris)
# Construct: The assay of coronary vasoactivity in the anesthetized, open-chest dog; from tissue; host or cells: coronary vessels in situ, anesthetized open-chest dog
# Sequence (P11617 whole entry): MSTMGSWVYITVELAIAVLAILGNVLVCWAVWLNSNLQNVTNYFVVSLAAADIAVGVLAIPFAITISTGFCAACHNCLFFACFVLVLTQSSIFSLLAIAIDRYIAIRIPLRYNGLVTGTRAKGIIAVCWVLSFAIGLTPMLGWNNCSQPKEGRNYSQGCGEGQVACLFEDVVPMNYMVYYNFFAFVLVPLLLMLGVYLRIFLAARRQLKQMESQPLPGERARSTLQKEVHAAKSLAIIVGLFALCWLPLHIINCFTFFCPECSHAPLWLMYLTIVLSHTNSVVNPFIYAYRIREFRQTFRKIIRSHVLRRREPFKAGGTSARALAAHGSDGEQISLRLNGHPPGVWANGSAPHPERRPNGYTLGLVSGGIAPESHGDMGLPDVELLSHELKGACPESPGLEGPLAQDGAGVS
# TEST PROTOCOL: Coronary vasoactivity in the anesthetized, open-chest dog (intracoronary infusion; MPR from EC50)
# Type: in vivo
# EXPERIMENTAL PARAMETERS: molar potency ratio relative to N6-methyladenosine (set equal to 1.0); coronary, dog
TEST READOUT: A2 Receptor MPR Relative to MeAdo

O=C(CCc1ccc(O)cc1)NCCNC(=O)Cc1ccc(NC(=O)Cc2ccc(Nc3ncnc4c3ncn4[C@@H]3O[C@H](CO)[C@@H](O)[C@H]3O)cc2)cc1 [Compound 17] | 56
CNC(=O)CNC(=O)[C@H](Cc1ccc(NC(=O)Cc2ccc(Nc3ncnc4c3ncn4[C@@H]3O[C@H](CO)[C@@H](O)[C@H]3O)cc2)cc1)NC(=O)OC(C)(C)C [Compound 12] | 88
OC[C@H]1O[C@@H](n2cnc3c(Nc4ccccc4)ncnc32)[C@H](O)[C@@H]1O [Compound 6, N^6 -phenyladenosine, reference compound] | 28

Each recorded value in this set is attributed to patent US5284834A.
